- Test system: PPARg:RXRa IVT, anti-PPARg (NR concentration 270 nM, RXRa partner concentration 90 nM)
- assay details: PBM binding z-score (relative to random genomic background probes); higher = stronger binding; sequences stand for … in GC…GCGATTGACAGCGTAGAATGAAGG
Use 2 as the dividing line for PBM binding z-score, with the line itself on the Met side and lower values as Not met.

Known results for sequences:
• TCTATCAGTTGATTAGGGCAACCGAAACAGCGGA = Not met
• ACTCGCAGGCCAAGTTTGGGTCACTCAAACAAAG = Not met
• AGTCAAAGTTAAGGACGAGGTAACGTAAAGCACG = Not met
• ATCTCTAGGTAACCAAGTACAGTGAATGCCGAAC = Met
• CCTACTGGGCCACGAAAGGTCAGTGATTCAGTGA = Met

Asked: Is PBM binding z-score for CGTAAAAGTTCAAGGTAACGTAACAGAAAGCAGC at or above 2?
Given back: Not met
